Origin of the recorded values: patent US20130266517A1

Target: alpha-synuclein (natural human wildtype alpha-synuclein) (human, UniProt P37840 1-140)
Assay: BLI, ForteBio Octet QK; apparent KD
# pKd per record follows
To interpret pKd, take it as minus log10 of a concentration measured in moles per litre.

Humanized 1H7 H2L2 (Hu1H7VHv2-Hu1H7VLv2) (antibody, V domains shown) VH: QVQLVQSGAEVKKPGASVKVSCKASGYSFTSYYIHWVRQAPGQGLEWIGWIYPGSGNTKYSEKFKGRATLTADTSTSTAYMELRSLRSDDTAVYFCARDGCYGFAYWGQGTLVTVSS VL: DIQLTQSPSSLSASVGDRVTITCKASQSVDYDGDSYMNWYQQKPGKAPKFLIYAASNLESGVPSRFSGSGSGTDFTLTISSLQPEDAATYYCQQSNEDPFTFGQGTKLEIK | 8.70

Here is the next item to consider.
Could you share which pKd value was measured for Humanized 1H7 H4L2 (Hu1H7VHv4-Hu1H7VLv2) (antibody, V domains shown) VH: QVQLVQSGAEVKKPGASVKVSCKASGYSFTSYYIHWVRQAPGQGLEWIGWIYPGSGNTKYSEKFKGRATLTADTSTSTAYMELRSLRSDDTAVYFCARDGSYGFAYWGQGTLVTVSS VL: DIQLTQSPSSLSASVGDRVTITCKASQSVDYDGDSYMNWYQQKPGKAPKFLIYAASNLESGVPSRFSGSGSGTDFTLTISSLQPEDAATYYCQQSNEDPFTFGQGTKLEIK ?
8.77
